tested on: K. pneumoniae NVT1001 strains with carbapenemase plasmids; assay: Etest MIC of β-lactams, OmpK35/36 loss, ΔramR and/or carbapenemase (Table 9); assay type: cell-based, Klebsiella pneumoniae; conditions: Klebsiella pneumoniae, KPC-3 on pACYC177; Δ35 (ΔompK35 mutant)
I'd appreciate it if you could supply MIC values for the items below.
Please give a number only; it is taken to be in µg/mL.

**Q:** Need MIC, item `CO[C@@]1(NC(=O)Cc2cccs2)C(=O)N2C(C(=O)O)=C(COC(N)=O)CS[C@@H]21`
**A:** 32

**Q:** Lookup `CCO/N=C(\C(=O)N[C@@H]1C(=O)N2C(C(=O)[O-])=C(Sc3nc(-c4cc[n+](C)cc4)cs3)CS[C@H]12)c1nsc(N)n1`
**A:** 256

**Q:** Lookup `C[C@@H](O)[C@H]1C(=O)N2C(C(=O)O)=C(S[C@@H]3CN[C@H](C(=O)Nc4cccc(C(=O)O)c4)C3)[C@H](C)[C@H]12`
**A:** 32

**Q:** Lookup `C[C@@H](O)[C@H]1C(=O)N2C(C(=O)O)=C(S[C@@H]3CN[C@H](CNS(N)(=O)=O)C3)[C@H](C)[C@H]12`
**A:** 32
